Reported MIC by item:
- Test system: Staphylococcus aureus
- test.summary: Antibacterial activity against Staphylococcus aureus DSM 20231 assessed as growth inhibition after 18 hrs
- Format: functional
- measurement.parameters: DSM 20231, 18 h
Peptide text beside a SMILES is read from it. * marks the point of attachment. Butyryl = CCCC(=O)*

compound: CCCC(=O)NCCCC[C@H](NC(=O)[C@H](Cc1c[nH]c2ccccc12)NC(=O)[C@H](CCCNC(=N)N)NC(=O)[C@H](Cc1c[nH]c2ccccc12)NC(=O)[C@H](CCCNC(=N)N)NC(=O)[C@H](Cc1c[nH]c2ccccc12)NC(=O)[C@@H](N)CCCNC(=N)N)C(N)=O (H-RWRWRWK(Butyryl)-NH2)
measured.target: Staphylococcus aureus
MIC: > 100 µM
//
compound: CC(=O)NCCCC[C@H](N)C(=O)N[C@@H](CCCNC(=N)N)C(=O)N[C@@H](Cc1c[nH]c2ccccc12)C(=O)N[C@@H](CCCNC(=N)N)C(=O)N[C@@H](Cc1c[nH]c2ccccc12)C(=O)N[C@@H](CCCNC(=N)N)C(=O)N[C@@H](Cc1c[nH]c2ccccc12)C(N)=O (H-K(Ac)RWRWRW-NH2)
measured.target: Staphylococcus aureus
MIC: > 100 µM
//
compound: CC(=O)NCCCC[C@H](NC(=O)[C@H](Cc1c[nH]c2ccccc12)NC(=O)[C@H](CCCNC(=N)N)NC(=O)[C@H](Cc1c[nH]c2ccccc12)NC(=O)[C@H](CCCNC(=N)N)NC(=O)[C@H](Cc1c[nH]c2ccccc12)NC(=O)[C@@H](N)CCCNC(=N)N)C(N)=O (H-RWRWRWK(Ac)-NH2)
measured.target: Staphylococcus aureus
MIC: > 100 µM

// data source = ChEMBL document CHEMBL2203177
